Data origin, for the record: a melting point compilation (Tetko et al.; mined from patent text by program, amines drawn as free bases though some values may be those of a salt)

measured quantity: melting point

compound	measured quantity	reading
Cc1cc(C)c(C(C)(CO)c2ccc(C(C)C)cc2)c(O)c1C (stereo not drawn)	melting point	116 to 117 °C
COc1ccc(COCc2nc(C(C)C)c(Sc3cc(Cl)cc(Cl)c3)n2CC(F)(F)F)cc1	melting point	134 to 136 °C

Documented melting point of O=C(Nc1cccnc1)c1cccc(-c2ccc3c(c2)C(Oc2ccc(Cl)cc2Cl)CC3)c1 (stereo not drawn) : 188 to 189 °C

Documented melting point of CC(C)(C)c1ccc(C=C(CCCCCC2CCCCC2)COCc2ccccc2)cc1NC(=O)CC1c2ccccc2Oc2ccccc21 : 110 °C

Documented melting point of CCCc1c(OC(C(=O)O)c2ccc(Cl)c(Cl)c2)ccc(C(C)=O)c1O (stereo not drawn) : 177 to 180 °C

Documented melting point of CCCCc1nc(C(=O)C(C)(C)C)c(C#N)n1Cc1ccc(-c2ccccc2-c2nnnn2C(c2ccccc2)(c2ccccc2)c2ccccc2)cc1 : 103 to 105 °C

Documented melting point of Cc1noc2cc3c(cc12)C1(CO3)C(=O)N(Cc2ccc(C(F)(F)F)o2)c2ccccc21 (stereo not drawn) : 111 to 112 °C

Documented melting point of COc1ccc(C(=O)OC2CCN(Cc3ccccc3)CC2)cc1 : 55 to 56 °C

Documented melting point of O=C(O)COc1ccc([C@H]2c3ccc(O)cc3OC[C@H]2c2ccccc2)cc1 (racemic) : 178 °C

Documented melting point of c1ccc(C2CC3(CC(c4ccccc4)N2)OCCO3)cc1 (stereo not drawn) : 125 to 127 °C

---

Reported melting point values for a set of molecules

Consider the worked cases shown below.
molecule	melting point
COC(=O)CNC(=O)[C@H](CSC(c1ccccc1)(c1ccccc1)c1ccccc1)NC(=O)OC(C)(C)C	167 to 169 °C
Cc1ccc([N+](=O)[O-])cc1C(=O)N(C)C	98 to 99 °C
O=P(Cc1ccccc1)(C1CCCCC1)C1CCCCC1	147 to 149 °C
COc1ccc(Oc2nc(Nc3cccc(C(=O)O)c3)nc(Oc3ccc(C#N)cc3)n2)cc1	240 to 242 °C
Cc1cc2c(c(C)c1Br)C(c1ccccc1)CO2 (stereo not given)	135 to 136 °C

Documented melting point of O=C(NN=Cc1c(O)ccc2ccccc12)c1cc2ccccc2cc1O : > 300 °C

Documented melting point of COC(=O)c1c(C(=O)OC)c2n(c1C)-c1ccccc1C2 : 162 to 164 °C

Documented melting point of C#CCN1CC(=O)Oc2cc(F)c(NN)cc21 : 146 °C

---

Reported melting point values for a set of compounds

Consider the worked cases shown below.
compound	measured quantity	reading
O=C(O)Cn1c(=O)c(=O)[nH]c2cc([N+](=O)[O-])c(Cl)cc21	melting point	> 280 °C
COc1cccc2c1CC1CC(CN3CCC(c4c[nH]c5ccccc45)CC3)CN(C)C1C2 (centres undefined)	melting point	220 to 223 °C

Documented melting point of COc1ccccc1NC(=O)Nc1nc(Nc2ccccc2-c2ccccc2)nc(N(CCC(=O)O)Cc2cc(C(F)(F)F)cc(C(F)(F)F)c2)n1 : 132 to 135 °C

Documented melting point of COc1ccc(COc2cccc(C(=O)O)c2OCc2ccc(OC)cc2)cc1 : 129 °C

Documented melting point of O=c1[nH]cccc1-c1ccccc1 : 223 to 229 °C

Documented melting point of O=C(O)C1=Cc2cc(Cl)cc(-c3ccco3)c2OC1C(F)(F)F (centres undefined) : 172 to 173 °C

Documented melting point of N#Cc1nn(-c2c(Cl)cc(C(F)(F)F)cc2Cl)c(N)c1SC(F)(F)C(F)(F)F : 134 to 136 °C

Documented melting point of COC(=O)C(O)(c1ccc(Cl)c(Cl)c1)c1ccc(Cl)c(Cl)c1 : 69 °C

Documented melting point of CCOC(=O)N1CCOC(c2ccccc2)(c2ccccc2)CC1 : 122 to 123 °C

---

Reported melting point values for a set of compounds

Consider the worked cases shown below.
compound	melting point
C=C(C)CNc1cccc(-c2ccnc3c(C(=O)c4cccs4)cnn23)c1	104 to 106 °C
C#CCn1c(C)c(C(=O)OCC)sc1=O	65 °C
CCON=C(CC)C1=C(OC(=O)c2ccccc2)CC(c2c(OC)cc(OC)cc2OC)CC1=O (centres undefined)	139 °C

Documented melting point of C(=C\c1nc(COc2ccc(CCCn3cnnn3)cc2)co1)/c1ccccc1 : 147 to 148 °C

Documented melting point of CCCN1Cc2cncn2C(c2ccc(C#N)cc2)C1=O (centres undefined) : 97 to 98 °C

---

measured quantity: melting point

Consider the worked cases shown below.
compound	reading
Oc1ccc(Nc2nc(NCc3ccco3)nc(-n3ccnc3)n2)cc1	244 to 246 °C
COc1ccc(NC(=O)C2CCCCn3c2nc(-c2ccncn2)cc3=O)c(OC)n1 (racemic)	231 to 233 °C
CC(=O)NC[C@H]1CN(c2ccc(N3CCC4(CC3)CS4)c(F)c2)C(=O)O1	152 to 154 °C
COc1ccc(CCNS(=O)(=O)Cc2ccc3[nH]cc(CCN(C)C)c3c2)cc1	67 to 70 °C
O=C(OCCCCCCc1ccc(OCc2ccc(Cl)cc2)cc1)c1cccnc1	66 to 67 °C

Switching to the query record.
Documented melting point of Cc1ccc(S(=O)(=O)C2=C(C(=O)OC3CCCCC3)C(=O)C=C(C(=O)OC3CCCCC3)C2=O)cc1 : 135 to 137 °C

---

Reported melting point values for a set of compounds

Consider the worked cases shown below.
compound	melting point
O=C(O)Cc1c(C(=O)c2ccc(O)cc2)[nH]c2cc(Cl)ccc12	231 to 234 °C
CC(C)(C)OC(=O)NC(C(=O)OCC(=O)c1ccccc1)c1ccc(OCC(=O)c2ccccc2)cc1 (stereo not given)	125 to 126 °C

Documented melting point of O=[N+]([O-])c1ccc(N=Nc2cc(OCCO)c(N(CCCO)CCCO)cc2OCCO)cc1 : 132 to 134 °C

Documented melting point of c1ccc(C(=C2CCNCC2)c2ccccc2)cc1 : 85 to 86 °C

Documented melting point of CC(C)(C)NC(=O)c1ccc2[nH]ccc2c1 : 176 °C

---

measured quantity: melting point

Consider the worked cases shown below.
compound	melting point
Cc1cnc2sc(S(=O)(=O)Cc3ccccc3)nn2c1=O	171 to 173 °C
COc1ccc2c(Nc3ccc4[nH]ccc4c3)c(C#N)cnc2c1	> 250 °C
O=C(Cc1c(-c2ccccc2)c2cc(CSc3ccccn3)c(Cl)cc2oc1=O)Nc1ccc(Cl)cc1C(F)(F)F	213 to 215 °C
Oc1cnc(C(F)(F)F)nc1	179 to 181 °C
c1cnc(N2CCN(Cc3nc4ccccc4[nH]3)CC2)nc1	198 to 200 °C
[N-]=[N+]=NC[C@H]1CN(c2ccc(N3C[C@@H]4C[C@H]3CO4)c(F)c2)C(=O)O1	101 to 102 °C
CN(c1nnc(C(F)(F)F)s1)C1CCN(Cc2cccc(F)c2)CC1	80.5 °C
CN1C(=O)C(NC(=O)Nc2ccccc2)N=C(c2ccccc2)c2ccccc21 (stereo unspecified)	260 to 261 °C

Documented melting point of CC(C)(C)c1ccc2c(c1)C=C(C(=O)O)CC2 : 185 to 186 °C

Documented melting point of CC(C)NS(=O)(=O)Cc1ccc([N+](=O)[O-])cc1 : 146 to 147 °C

Documented melting point of CC(=O)Oc1cccc(C=Cc2ccc3ccccc3n2)c1 : 86 to 87 °C

---

measured quantity: melting point

Consider the worked cases shown below.
compound	melting point
Cc1ccc(C(C)n2[nH]c(C)cc2=O)cc1 (stereo not given)	144 to 146 °C
O=C1NCCNN1c1cc(Cl)c(Sc2ccc(Cl)cc2)c(Cl)c1	242 to 243 °C
CCOC(=O)c1ccc2c(SC(=O)N(C)C)cccn2c1=O	119 to 121 °C
CC(c1ccc(-c2ccccc2F)cc1)S(=O)CC(=O)N(C)C (stereo not given)	131 to 133 °C

Switching to the query record.
Documented melting point of CCCC(CCNC(=O)C(C#N)=Cc1cc(O)c(O)c(O)c1)NC(=O)C(C#N)=Cc1cc(O)c(O)c(O)c1 (stereo not given) : > 300 °C

---

Reported melting point values for a set of compounds

compound	reading
CC(=O)Oc1ccc2c(c1)C(C)c1cc(OC(C)=O)ccc1-2	139 to 140 °C
NS(=O)(=O)c1cc2cccc(O)c2s1	196 to 198 °C
CCOc1nn(Cc2ccc(OCCc3ccc(CC)cn3)cc2)cc1CCC(=O)O	89 to 90 °C

Documented melting point of O=C1c2ccccc2C(=O)N1CC(=C(Br)Br)c1ccccc1 : 154 to 155 °C

Documented melting point of COC(=O)c1cc(-c2ccncc2)[nH]c1-c1ccncc1 : > 270 °C

Documented melting point of CN1Cc2c(C#N)ncn2-c2cccc(Br)c2C1=O : 226 to 228 °C
